Target: Peregrin (Homo sapiens) (UniProt P55201)
Sequence (whole entry): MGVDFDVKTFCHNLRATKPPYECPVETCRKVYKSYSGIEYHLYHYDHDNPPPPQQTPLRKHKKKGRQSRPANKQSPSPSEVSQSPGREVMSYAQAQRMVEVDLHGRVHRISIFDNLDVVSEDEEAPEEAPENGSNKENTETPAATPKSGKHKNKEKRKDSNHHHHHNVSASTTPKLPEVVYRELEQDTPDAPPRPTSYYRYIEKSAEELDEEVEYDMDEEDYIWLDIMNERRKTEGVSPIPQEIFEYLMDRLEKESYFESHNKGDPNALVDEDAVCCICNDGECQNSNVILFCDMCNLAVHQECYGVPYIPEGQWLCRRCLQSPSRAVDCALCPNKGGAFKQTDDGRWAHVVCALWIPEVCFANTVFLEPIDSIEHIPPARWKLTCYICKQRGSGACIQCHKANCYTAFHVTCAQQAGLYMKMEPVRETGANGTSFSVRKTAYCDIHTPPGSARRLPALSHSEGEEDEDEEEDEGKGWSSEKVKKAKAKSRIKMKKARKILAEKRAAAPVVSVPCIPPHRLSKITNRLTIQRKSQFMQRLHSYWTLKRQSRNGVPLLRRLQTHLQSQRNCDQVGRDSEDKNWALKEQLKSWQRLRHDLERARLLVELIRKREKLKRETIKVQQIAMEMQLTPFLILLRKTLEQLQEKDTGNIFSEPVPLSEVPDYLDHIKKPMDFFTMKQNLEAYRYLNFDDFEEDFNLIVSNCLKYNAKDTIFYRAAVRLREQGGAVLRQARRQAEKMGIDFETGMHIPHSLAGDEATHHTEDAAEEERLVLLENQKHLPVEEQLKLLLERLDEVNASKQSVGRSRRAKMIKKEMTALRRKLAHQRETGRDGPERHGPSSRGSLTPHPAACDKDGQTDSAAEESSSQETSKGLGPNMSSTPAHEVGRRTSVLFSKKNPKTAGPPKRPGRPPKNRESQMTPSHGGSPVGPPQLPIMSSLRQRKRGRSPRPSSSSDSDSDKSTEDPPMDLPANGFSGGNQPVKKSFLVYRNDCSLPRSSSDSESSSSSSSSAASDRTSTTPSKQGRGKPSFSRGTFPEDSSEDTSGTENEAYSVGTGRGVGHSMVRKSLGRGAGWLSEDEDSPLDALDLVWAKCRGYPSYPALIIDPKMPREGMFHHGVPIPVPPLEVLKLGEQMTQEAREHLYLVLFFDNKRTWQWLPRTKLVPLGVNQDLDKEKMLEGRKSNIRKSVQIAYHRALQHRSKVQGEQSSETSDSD
Details: Compound concentration 20.0 uM, Protein concentration 2.0 uM, Result type QC Liability
Below, each entry is listed with its recorded ΔTm.
The reply must contain the numeric value and, after it, the unit.

Recorded ΔTm, per entry:
compound | target | endpoint value
O=C(O)c1cccc(C2=C(c3cc(Cl)ccc3OCc3ccc(F)cc3F)CCC2)n1 | Peregrin (Homo sapiens) (UniProt P55201) | -5.87 °C
Cc1cc(Cn2c(N3CC4(CNC4)C3)nc3c(N4CCN(C)CC4)cc(Cl)cc32)cc(C)c1F | Peregrin (Homo sapiens) (UniProt P55201) | -3.49 °C
O=C(N[C@H]1CCC[C@H](CO)C1)C1CCN(c2nc3cc(Cl)c(-c4ccc(Cl)cc4)cc3o2)CC1 | Peregrin (Homo sapiens) (UniProt P55201) | -0.52 °C

Any idea what its ΔTm is? The compound is `C/C(=C\C(=O)Nc1ccccc1C(=O)O)c1ccc2ccccc2c1` -1.56 °C

Any idea what its ΔTm is? The compound is CCNc1ccc(-c2nn(-c3ccccc3C)c3c2C(C)Cc2nc(NC(=O)OC)sc2-3)cn1 (centres undefined) -1.43 °C

Any idea what its ΔTm is? The compound is `Cc1cc2c(cc(C(=O)N[C@H](CO)c3ccc(S(=O)(=O)CC(=O)O)cc3)n2C)c(Cl)c1Cl` -3.03 °C

Any idea what its ΔTm is? The compound is `N=C(N)NCCC[C@H](NC(=O)CC1(CC(=O)N2CCN(C(c3ccccc3)c3ccccc3)CC2)CCCC1)C(=O)NCc1ccccc1` -4.91 °C

Any idea what its ΔTm is? The compound is Cc1nnc2n1-c1sc3c(c1C(c1ccccc1Cl)=NC2)CC(C(=O)N1CCOCC1)C3 (centres undefined) -1.83 °C

Any idea what its ΔTm is? The compound is COP(=O)(CCC(N)C(=O)O)Oc1cccc(CC(=O)O)c1 (centres undefined) -1.49 °C

Any idea what its ΔTm is? The compound is `O=C1Nc2ccc(I)cc2/C1=C/c1cc(Br)c(O)c(Br)c1` -0.58 °C

Any idea what its ΔTm is? The compound is `O=S(=O)(Nc1ccc(C(O)(C(F)(F)F)C(F)(F)F)cc1)c1cccs1` -1.54 °C

Any idea what its ΔTm is? The compound is `CNC(=O)c1cccc(-c2ccc3c(N4CCOC[C@@H]4C)nc(N4CCOC[C@@H]4C)nc3n2)c1` -1.11 °C

Any idea what its ΔTm is? The compound is `Cc1ccc(-n2nc(C(C)(C)C)cc2NC(=O)Nc2ccccc2F)cc1` -0.3 °C

Any idea what its ΔTm is? The compound is `COc1cnccc1Nc1nc(-c2nn(Cc3c(F)cc(OCCO)cc3F)c3ccccc23)ncc1OC` -6.89 °C

Any idea what its ΔTm is? The compound is `Cc1cc(CN(CC(=O)Nc2ccc(Cl)cc2Cl)C2CCCCC2)ccc1OCC(=O)O` -6.07 °C

Any idea what its ΔTm is? The compound is `COc1cc(-c2cc3ncccc3c(O[C@@H](C)[C@H]3CNC(=O)C3)n2)cc(OC)c1OC` -2.76 °C

Any idea what its ΔTm is? The compound is `CCOC(=O)CS(=O)(=O)c1ccc([C@@H](CO)NC(=O)c2cc3c(Cl)c(Cl)c(C)cc3n2C)cc1` -8.76 °C

Any idea what its ΔTm is? The compound is COCCNC1CCC(Nc2cc(-c3csc(NCC4(C#N)CCOCC4)n3)c(Cl)cn2)CC1 (centres undefined) 0.03 °C

Any idea what its ΔTm is? The compound is `C[C@@H]1CN(CC(=O)N2CC(C)(C)c3nc(CO)c(Cc4ccc(F)cc4)cc32)[C@@H](CN2CCOC[C@H]2C)CN1` -2.93 °C
